Test system: B16 F0 murine melanoma
assay_overview: Biodistribution study by planar scintigraphic imaging (gamma camera), tumour uptake quantification
Assay type: in vivo, C57BL6 male mice
condition_context: 360 H (15 days) post injection, i.v.
Structures can show the parent of a compound that is named as a salt.
Reported Radioactive concentration in tumour (tumoural uptake) by item:
metric_name: Radioactive concentration in tumour (tumoural uptake)

>>> df
                                   compound            study_target    value_measured
0  CCN(CCNC(=O)c1cnc2cc([125I])ccc2n1)CCOc1cccnc1F [[^125I]11, dihydrochloride salt]  B16 F0 murine melanoma  0.6 ± 0.3 % ID/g
1  CCN(CCCc1ccnc(F)c1)CCNC(=O)c1cnc2cc([125I])ccc2n1.Cl.Cl [[^125I]53]  B16 F0 murine melanoma  0.7 ± 0.5 % ID/g
2  CCN(CCNC(=O)c1cccc2nc3cc([125I])ccc3nc12)CCOc1cccnc1F.Cl.Cl [[^125I]85]  B16 F0 murine melanoma  0.7 ± 0.4 % ID/g
3  CCN(CCF)CCNC(=O)c1cnc2cc([125I])ccc2n1 [[^125I]26, dihydrochloride salt]  B16 F0 murine melanoma        0.6 % ID/g

---

Test system: B16 F0 murine melanoma
assay_overview: Biodistribution study by planar scintigraphic imaging (gamma camera), tumour uptake quantification
Assay type: in vivo, C57BL6 male mice
condition_context: 6 H post injection, i.v.
Structures can show the parent of a compound that is named as a salt.
metric_name: Radioactive concentration in tumour (tumoural uptake) (% ID/g)

                                   compound  unit_annotation  value_measured
0  CCN(CCF)CCNC(=O)c1cnc2cc([125I])ccc2n1 [[^125I]26, dihydrochloride salt]           % ID/g            25.0
1  CCN(CCNC(=O)c1ccnc(F)c1)CCNC(=O)c1cnc2cc([125I])ccc2n1.Cl.Cl [[^125I]40]           % ID/g            12.1
2  CCN(CCNC(=O)c1cnc2cc([125I])ccc2n1)Cc1ccnc(F)c1.Cl.Cl [[^125I]34]           % ID/g            15.4
3  CCN(CCNC(=O)c1ccc2cncc([125I])c2n1)CCOc1cccnc1F.Cl.Cl [[^125I]74]           % ID/g             5.3

---

Tested on: B16 F0 murine melanoma
assay_overview: Biodistribution study by planar scintigraphic imaging (gamma camera), tumour uptake quantification
Type: in vivo, C57BL6 male mice
condition_context: 3 H post injection, i.v.
Structures can show the parent of a compound that is named as a salt.
Labelling field: enter Criterion met if recorded Radioactive concentration in tumour (tumoural uptake) is less than 10 % ID/g. Enter Criterion not met if it equals or exceeds that cut-off.

In [3]: df
Out[3]:
                                   compound     category_label
0  CCN(CCNC(=O)c1cnc2cc([125I])ccc2n1)Cc1ccnc(F)c1.Cl.Cl [[^125I]34]  Criterion not met
1  CCN(CCNC(=O)c1ccnc(F)c1)CCNC(=O)c1cnc2cc([125I])ccc2n1.Cl.Cl [[^125I]40]      Criterion met
2  CCN(CCNC(=O)c1ccc2cncc([125I])c2n1)CCOc1cccnc1F.Cl.Cl [[^125I]74]      Criterion met
3  CCN(CCCc1ccnc(F)c1)CCNC(=O)c1cnc2cc([125I])ccc2n1.Cl.Cl [[^125I]53]      Criterion met
4  CCN(CCNC(=O)c1cnc2cc([125I])ccc2n1)CCNc1cccc(F)n1 [[^125I]17, dihydrochloride salt]  Criterion not met
5  CCN(CC)Cc1ccnc(F)c1CNC(=O)c1cnc2cc([125I])ccc2n1.Cl.Cl [[^125I]92]      Criterion met
6  CCN(CCNC(=O)c1cccc2nc3cc([125I])ccc3nc12)CCOc1cccnc1F.Cl.Cl [[^125I]85]  Criterion not met
7  CCN(CC)CCNC(=O)c1cc(F)c2cc([125I])ccc2n1 [[^125I]106]      Criterion met
8  CCN(C/C=C/CF)CCNC(=O)c1cnc2cc([125I])ccc2n1.Cl.Cl [[^125I]57]  Criterion not met
9  CCN(CCNC(=O)c1cnc2cc([125I])ccc2n1)CCc1ccnc(F)c1.Cl.Cl [[^125I]47]  Criterion not met

---

metric_name: melting point

In [3]: df
Out[3]:
                                     smiles        value_measured
0  CCN(CCNC(=O)c1ccc2cc(I)ccc2c1)CCOc1cccnc1F.Cl         157 to 159 °C
1  CCN(CCNC(=O)c1ccc2cc(I)ccc2n1)CCOc1cccnc1F.Cl.Cl   99 to 101 °C (dec.)
2  CCN(CCNC(=O)c1ccnc(F)c1)CCNC(=O)c1cnc2cc(I)ccc2n1.Cl.Cl         157 to 159 °C
3  CCN(CC)Cc1ccnc(F)c1CNC(=O)c1cnc2cc(I)ccc2n1         147 to 149 °C
4  CCN(CCNC(=O)c1cccc2nc3cc(I)ccc3nc12)CCOc1cccnc1F.Cl.Cl  127 to 129 °C (dec.)
5  CCN(CCNC(=O)c1cnc2cc(I)ccc2n1)CCNc1cccc(F)n1.Cl.Cl   99 to 101 °C (dec.)
6  CCN(CCNC(=O)c1ccc2cncc(I)c2n1)CCOc1cccnc1F.Cl.Cl  131 to 133 °C (dec.)
7  CCN(CCNC(=O)c1cn2cc(I)ccc2n1)CCOc1cccnc1F.Cl.Cl         143 to 145 °C
8  CCN(CCNC(=O)c1ccnc(F)c1)CCNC(=O)c1cnc2cc(I)ccc2n1         146 to 148 °C

---

Tested on: B16 F0 murine melanoma
assay_overview: Biodistribution study by planar scintigraphic imaging (gamma camera), tumour uptake quantification
Assay type: in vivo, C57BL6 male mice
condition_context: 360 H (15 days) post injection, i.v.
Structures can show the parent of a compound that is named as a salt.
metric_name: Radioactive concentration in tumour (tumoural uptake) (% ID/g)

>>> print(df.to_string())
                                   compound            study_target  value_measured
0  CCN(CC)CCNC(=O)c1cc(F)c2cc([125I])ccc2n1 [[^125I]106]  B16 F0 murine melanoma             0.7
1  CCN(CCNC(=O)c1ccc2cncc([125I])c2n1)CCOc1cccnc1F.Cl.Cl [[^125I]74]  B16 F0 murine melanoma             0.4
2  CCN(CC)Cc1ccnc(F)c1CNC(=O)c1cnc2cc([125I])ccc2n1.Cl.Cl [[^125I]92]  B16 F0 murine melanoma             0.7
3  CCN(CCNC(=O)c1cnc2cc([125I])ccc2n1)CCc1ccnc(F)c1.Cl.Cl [[^125I]47]  B16 F0 murine melanoma             1.1
4  CCN(CCNC(=O)c1cnc2cc([125I])ccc2n1)Cc1ccnc(F)c1.Cl.Cl [[^125I]34]  B16 F0 murine melanoma             0.8
5  CCN(CCNC(=O)c1cnc2cc([125I])ccc2n1)CCNc1cccc(F)n1 [[^125I]17, dihydrochloride salt]  B16 F0 murine melanoma             0.4
6  CCN(C/C=C/CF)CCNC(=O)c1cnc2cc([125I])ccc2n1.Cl.Cl [[^125I]57]  B16 F0 murine melanoma             1.3

---

Test system: B16 F0 murine melanoma
assay_overview: Biodistribution study by planar scintigraphic imaging (gamma camera), tumour uptake quantification
Assay type: in vivo, C57BL6 male mice
condition_context: 1 H post injection, i.v.
metric_name: Radioactive concentration in tumour (tumoural uptake)

                                   molecule     value_measured
0  CCN(CCNC(=O)c1ccnc(F)c1)CCNC(=O)c1cnc2cc([125I])ccc2n1.Cl.Cl [[^125I]40]   9.6 ± 0.7 % ID/g
1  CCN(CCNC(=O)c1ccc2cncc([125I])c2n1)CCOc1cccnc1F.Cl.Cl [[^125I]74]   5.6 ± 1.7 % ID/g
2  CCN(CC)Cc1ccnc(F)c1CNC(=O)c1cnc2cc([125I])ccc2n1.Cl.Cl [[^125I]92]   5.6 ± 2.0 % ID/g
3  CCN(CCNC(=O)c1cnc2cc([125I])ccc2n1)CCc1ccnc(F)c1.Cl.Cl [[^125I]47]  12.1 ± 4.1 % ID/g
4  CCN(C/C=C/CF)CCNC(=O)c1cnc2cc([125I])ccc2n1.Cl.Cl [[^125I]57]  10.8 ± 2.3 % ID/g

---

System: B16 F0 murine melanoma
assay_overview: Biodistribution study by planar scintigraphic imaging (gamma camera), tumour uptake quantification
Assay type: in vivo, C57BL6 male mice
condition_context: 72 H post injection, i.v.
Reported Radioactive concentration in tumour (tumoural uptake) by item:
metric_name: Radioactive concentration in tumour (tumoural uptake)

                                   molecule    value_measured
0  CCN(CCCc1ccnc(F)c1)CCNC(=O)c1cnc2cc([125I])ccc2n1.Cl.Cl [[^125I]53]  9.5 ± 5.9 % ID/g
1  CCN(CC)Cc1ccnc(F)c1CNC(=O)c1cnc2cc([125I])ccc2n1.Cl.Cl [[^125I]92]  4.1 ± 1.5 % ID/g
2  CCN(CCNC(=O)c1cnc2cc([125I])ccc2n1)CCc1ccnc(F)c1.Cl.Cl [[^125I]47]  7.7 ± 0.9 % ID/g
3  CCN(CC)CCNC(=O)c1cc(F)c2cc([125I])ccc2n1 [[^125I]106]  4.9 ± 1.2 % ID/g
